Target: Aryl hydrocarbon receptor (Homo sapiens) (UniProt P35869)
Sequence (P35869 whole entry, looked up): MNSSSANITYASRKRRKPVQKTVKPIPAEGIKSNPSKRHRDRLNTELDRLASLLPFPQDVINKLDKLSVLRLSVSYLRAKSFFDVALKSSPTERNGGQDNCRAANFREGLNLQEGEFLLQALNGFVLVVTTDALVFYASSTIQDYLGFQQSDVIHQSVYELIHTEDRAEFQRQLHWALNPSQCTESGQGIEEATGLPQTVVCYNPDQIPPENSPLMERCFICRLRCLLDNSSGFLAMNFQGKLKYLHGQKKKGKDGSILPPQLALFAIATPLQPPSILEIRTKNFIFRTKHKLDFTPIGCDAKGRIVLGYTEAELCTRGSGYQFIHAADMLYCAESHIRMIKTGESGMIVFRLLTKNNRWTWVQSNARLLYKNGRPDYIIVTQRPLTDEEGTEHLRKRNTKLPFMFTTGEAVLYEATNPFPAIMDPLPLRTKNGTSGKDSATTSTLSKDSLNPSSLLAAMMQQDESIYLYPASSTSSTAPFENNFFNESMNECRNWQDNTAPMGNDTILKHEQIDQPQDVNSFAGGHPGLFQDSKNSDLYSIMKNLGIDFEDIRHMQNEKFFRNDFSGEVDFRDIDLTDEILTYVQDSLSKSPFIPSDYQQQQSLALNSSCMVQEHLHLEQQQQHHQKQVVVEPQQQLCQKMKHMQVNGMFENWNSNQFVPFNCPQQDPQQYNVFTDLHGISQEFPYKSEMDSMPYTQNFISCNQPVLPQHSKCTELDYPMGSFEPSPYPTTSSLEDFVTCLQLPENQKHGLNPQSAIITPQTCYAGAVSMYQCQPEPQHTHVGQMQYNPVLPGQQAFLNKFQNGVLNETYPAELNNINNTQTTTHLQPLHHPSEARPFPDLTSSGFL
Test: AHR activators, primary screen, cell-based, luminescence, luciferase reporter, human (AID 2796);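 further: 0% = vehicle wells and 100% = reference agonist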
Settings: AHR-responsive luciferase reporter cells, at 5 µM, stronger effect = higher value
In all, about 320,000 compounds went through this assay and about 8,000 (2.5%) were called active. The full list was thinned out, with actives kept by preference.
measuredProperty: activation

See these solved cases before continuing.
{"molecule": "O=C(Nc1ccc(Cl)cn1)c1ccc2c(c1)OCCO2", "activation": "-5.76% (inactive)"}
{"molecule": "NS(=O)(=O)c1ccc(-c2ccc(/C=C3\\SC(=O)NC3=O)o2)cc1", "activation": "125% (active)"}
{"molecule": "Cc1cc(=O)n2[nH]c(-c3sccc3-n3c(C)ccc3C)cc2n1", "activation": "10% (inactive)"}
{"molecule": "Cc1ccc(Nc2nc(CSc3nnnn3-c3ccccc3)cc(=O)[nH]2)cc1", "activation": "73.4% (active)"}
{"molecule": "NC(=O)c1c(Nc2nc3c(F)cccc3s2)sc2c1CCCC2", "activation": "52.5% (active)"}
{"molecule": "CC1(C)CC(CCC(=O)Nc2ccccc2Cl)C(=O)O1 (configuration not stated)", "activation": "-0.84% (inactive)"}
{"molecule": "CC1CC(C)(C)CC2(C1)NC(=O)N(CC(=O)Nc1nccs1)C2=O (configuration not stated)", "activation": "2.2% (inactive)"}
{"molecule": "Cc1cc(=O)n2[nH]c(-c3cccc(Cl)c3)cc2n1", "activation": "50.5% (active)"}
{"molecule": "O=C(Cc1cccs1)Nc1cccc(-c2nc3ccccc3[nH]2)c1", "activation": "75.8% (active)"}
{"molecule": "NC(=O)c1c(NC(=O)CSc2nnc(-c3ccco3)n2N)sc2c1CCCC2", "activation": "19.8% (inactive)"}

Here is the next item to consider.
Exam item: Give the measured activation of Cc1ccc(-c2noc(CSc3nnnn3-c3ccccc3)n2)cc1 .
Marked response: 8.65% (inactive)
